Measured Kd values are reported for all entries that follow.
molecular target: MAP/microtubule affinity-regulating kinase 3 (Homo sapiens); further: in the data inactive means no Kd found up to 30 µM
Sequence (P27448 whole entry): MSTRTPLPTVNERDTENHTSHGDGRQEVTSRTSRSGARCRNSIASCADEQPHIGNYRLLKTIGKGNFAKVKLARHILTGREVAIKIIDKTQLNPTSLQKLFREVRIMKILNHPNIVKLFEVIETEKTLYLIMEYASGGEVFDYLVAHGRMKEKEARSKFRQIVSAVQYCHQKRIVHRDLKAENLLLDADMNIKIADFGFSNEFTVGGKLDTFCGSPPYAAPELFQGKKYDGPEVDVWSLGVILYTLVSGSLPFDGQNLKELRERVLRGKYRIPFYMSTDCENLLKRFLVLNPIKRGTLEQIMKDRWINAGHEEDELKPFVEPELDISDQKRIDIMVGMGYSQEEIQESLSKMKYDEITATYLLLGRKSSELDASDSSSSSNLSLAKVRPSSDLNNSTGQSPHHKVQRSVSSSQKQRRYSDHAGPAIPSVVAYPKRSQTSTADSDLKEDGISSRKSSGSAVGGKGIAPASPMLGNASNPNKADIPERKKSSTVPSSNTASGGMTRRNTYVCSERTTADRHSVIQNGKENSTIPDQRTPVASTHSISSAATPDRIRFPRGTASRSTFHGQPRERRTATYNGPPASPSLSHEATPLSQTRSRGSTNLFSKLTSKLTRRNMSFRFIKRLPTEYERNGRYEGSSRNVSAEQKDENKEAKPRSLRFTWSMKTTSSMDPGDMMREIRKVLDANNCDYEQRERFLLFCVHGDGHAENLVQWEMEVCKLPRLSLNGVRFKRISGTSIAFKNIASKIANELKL
Calls of active or inactive are those of the source.

C[C@@H](NC(=O)c1ncnc(N)c1Cl)c1ncc(C(=O)Nc2cc(C(F)(F)F)c(Cl)cn2)s1 :: > 30 µM (inactive)
CNC(=O)c1nn(C)c2c1C(C)(C)Cc1cnc(Nc3ccc(N4CCN(C)CC4)cc3)nc1-2 :: 3.44 µM (active)
Cn1cnc2c(F)c(Nc3ccc(Br)cc3F)c(C(=O)NOCCO)cc21 :: > 30 µM (inactive)
CN1CCN(CCOc2cc(OC3CCOCC3)c3c(Nc4c(Cl)ccc5c4OCO5)ncnc3c2)CC1 :: > 30 µM (inactive)
COc1cc2ncnc(Oc3cccc(NC(=O)Nc4cc(C(C)(C)C(F)(F)F)on4)c3)c2cc1OC :: > 30 µM (inactive)

Alright, here's another molecule for you.
query: Fill in: Kd of NC1(c2ccc(-c3nc4ccn5c(=O)[nH]nc5c4cc3-c3ccccc3)cc2)CCC1 is ___
result: > 30 µM (inactive)
